Biological target: Methionine aminopeptidase 2 (Homo sapiens, UniProt P50579)
Sequence (P50579 whole entry): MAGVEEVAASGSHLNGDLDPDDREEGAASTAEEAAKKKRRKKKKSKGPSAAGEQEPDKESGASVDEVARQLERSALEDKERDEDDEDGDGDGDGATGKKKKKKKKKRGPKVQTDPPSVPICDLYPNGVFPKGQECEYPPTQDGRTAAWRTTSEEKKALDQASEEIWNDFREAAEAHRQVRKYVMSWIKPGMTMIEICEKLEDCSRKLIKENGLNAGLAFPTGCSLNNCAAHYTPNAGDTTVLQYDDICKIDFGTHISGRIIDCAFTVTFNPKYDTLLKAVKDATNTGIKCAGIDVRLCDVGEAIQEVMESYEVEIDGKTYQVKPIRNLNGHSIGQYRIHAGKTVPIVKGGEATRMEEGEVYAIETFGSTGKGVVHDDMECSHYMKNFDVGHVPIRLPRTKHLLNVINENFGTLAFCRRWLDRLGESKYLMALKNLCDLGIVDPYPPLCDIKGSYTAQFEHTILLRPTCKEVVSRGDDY
Assay: MetAP Inhibition Assay
Conditions: pH 7.5; 22 °C
pIC50: −log10 of the molar value.
RECORDED_ENDPOINT: pIC50

**Q:** Determine its reported pIC50: CC(C)C=Nc1cccnc1C(=O)Nc1nccs1
**A:** < 3.00

###

Biological target: Methionine aminopeptidase 1 (Homo sapiens, UniProt P53582)
Please provide measured IC50 for the entries that follow.
One number for each entry, in µM.

# batch: return IC50 for each of the 2 molecules below
1. CC(C)C=Nc1cccnc1C(=O)Nc1nccs1
2. O=C(CCc1ccccc1)Nc1cccnc1C(=O)Nc1nccs1

**A:**
6.4
3.5

Data provenance: BindingDB's records for doi:10.1073/pnas.0608389103
